Target: hGPR65 (Homo sapiens, UniProt Q8IYL9)
Construct: expressed in transfected cells; host or cells: HeLa (ATCC CCL-2), lentiviral transduction, pLX317
Sequence (Q8IYL9 whole entry): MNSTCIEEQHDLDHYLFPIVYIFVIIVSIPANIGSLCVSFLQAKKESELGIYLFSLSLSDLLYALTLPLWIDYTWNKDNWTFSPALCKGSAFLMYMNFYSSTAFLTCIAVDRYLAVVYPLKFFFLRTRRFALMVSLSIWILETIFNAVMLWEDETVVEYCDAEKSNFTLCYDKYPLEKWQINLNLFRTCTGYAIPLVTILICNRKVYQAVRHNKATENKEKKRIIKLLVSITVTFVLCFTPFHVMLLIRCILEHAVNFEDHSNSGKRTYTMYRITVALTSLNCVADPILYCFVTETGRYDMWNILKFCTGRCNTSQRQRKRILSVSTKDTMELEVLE
Assay: cAMP detection in HeLa expression cell line, hGPR65
Format: cell-based
Details: HeLa, 2nd hGPR column pair; relative to 100uM forskolin (100%) and DMSO (0%); NA = no activity; read-out: hGPR Max Activity %
We'd kindly ask you to apply these Emax classes: low band (below 70%), middle band (70% to below 80%), high band (80% or more)

- chemical-structure: "Cc1ccc(NC(=O)c2cnn3c(O)cc(-c4ccc(COC(C)C)cc4)nc23)c(Cl)c1"
  assigned-class: "low band"
- chemical-structure: "Cc1ccc(NC(=O)c2cnn3c(O)cc(-c4ccc(C(=O)NC(C)C)cc4)nc23)cc1"
  assigned-class: "low band"
- chemical-structure: "Cc1ncc(NC(=O)c2cnn3c(O)cc(-c4ccc(COC(C)C)cc4)nc23)cn1"
  assigned-class: "low band"
- chemical-structure: "CC(C)OCc1ccc(-c2cc(O)n3ncc(C(=O)Nc4ccccc4)c3n2)cc1"
  assigned-class: "high band"
- chemical-structure: "CCOCc1ccc(-c2cc(O)n3ncc(C(=O)Nc4ccccc4)c3n2)cc1"
  assigned-class: "low band"

Ask: Which class does Cc1ccc(NC(=O)c2cnn3c(O)cc(-c4ccc(F)cc4)nc23)cc1 fall in?
Reply: middle band

----------
Target: hGPR65 (Homo sapiens, UniProt Q8IYL9)
Construct: expressed in transfected cells; host or cells: HeLa (ATCC CCL-2), lentiviral transduction, pLX317
Assay: cAMP detection in HeLa expression cell line, hGPR65
Type: cell-based
Conditions: 2nd hGPR column pair; NA = no activity; read-out: hGPR EC50
observed-property: EC50 (nM)
Your answer should be a plain number; it is taken to be in nM.

# annotated cases, reported EC50 shown
- chemical-structure: "Cc1ccc(NC(=O)c2cnn3c(O)cc(-c4ccc(-c5ccccc5O)cc4)nc23)cc1"
  reading-unit: "nM"
  EC50: 5620
- chemical-structure: "CCCc1cc(-c2cc(O)n3ncc(C(=O)Nc4ccc(C)cc4)c3n2)no1"
  reading-unit: "nM"
  EC50: 790

Ask: Give the value of EC50 reported for the following: Cc1ccc(NC(=O)c2cnn3c(O)cc(-c4ccc(-c5ccccc5C(C)C)cc4)nc23)cc1
Reply: 152

Ask: Please report EC50 for the following compound: Cc1ccc(NC(=O)c2cnn3c(O)cc(-c4ccc(N5CCOCC5)c(Cl)c4)nc23)cc1
Reply: 851

----------
Target: mGPR65 (Mus musculus)
Construct: expressed in transfected cells; host or cells: HeLa (ATCC CCL-2), lentiviral transduction, pLX317
Assay: cAMP detection in HeLa expression cell line, mGPR65
Assay type: cell-based
Conditions: HeLa; relative to 100uM forskolin (100%) and DMSO (0%); NA = no activity; read-out: mGPR Max Activity %
observed-property: Emax (%)
Give a bare numeral; the unit % is implied.

- compound: "COCc1ccc(-c2cc(O)n3ncc(C(=O)Nc4ccc(C(=O)OC)cc4)c3n2)cc1"
  Emax (%): 64.1

Ask: Answer with Emax of Cc1ccc(NC(=O)c2cnn3c(O)cc(-c4ccc(N5CCOCC5)cc4)nc23)cc1 measured for mGPR65 (Mus musculus).
Reply: 26.6

Ask: Report Emax from mGPR65 (Mus musculus) testing of Cc1ccc(NC(=O)c2cnn3c(O)cc(-c4ccc(C(F)(F)F)cc4)nc23)cc1
Reply: -22.7

Ask: Enter measured Emax, system mGPR65 (Mus musculus), for the compound shown: Cc1ccc(NC(=O)c2cnn3c(O)cc(-c4ccc(COC(C)C)c(Cl)c4)nc23)cc1
Reply: 51

Ask: Identify measured Emax obtained with mGPR65 (Mus musculus) for Cc1n[nH]c(C)c1CCc1cc(O)n2ncc(C(=O)Nc3ccc(Cl)cc3)c2n1 .
Reply: 10.7

----------
Test system: GFP-expressing HeLa cells
Experiment: cAMP detection in HeLa expression cell line, GFP control
Assay type: cell-based, human
Details: Homo sapiens, HeLa, 1st GFP column pair; relative to 100uM forskolin (100%) and DMSO (0%); NA = no activity; read-out: GFP Max Activity %
observed-property: Emax
Hi, when you answer, please include the unit after the number. Thanks!

A selection of reference data follows.
- molecule: "Cc1n[nH]c(C)c1CCc1cc(O)n2ncc(C(=O)Nc3ccc(Cl)cc3)c2n1 [BRD1303]"
  Emax: "5.8%"
- molecule: "CC(C)OCc1ccc(-c2cc(O)n3ncc(C(=O)Nc4ccccc4)c3n2)cc1 [BRD5060]"
  Emax: "5.52%"
- molecule: "Cc1ccc(NC(=O)c2cnn3c(O)cc(-c4ccc(COC(C)C)cc4)nc23)cn1 [BRD5071]"
  Emax: "8.1%"
- molecule: "Cc1ccc(NC(=O)c2cnn3c(O)cc(-c4ccc(N5CCC(=O)CC5)cc4)nc23)cc1 [BRD8536]"
  Emax: "1.86%"
- molecule: "Cc1ccc(NC(=O)c2cnn3c(O)cc(-c4ccc(N5CCOCC5)c(Cl)c4)nc23)cc1 [BRD5062]"
  Emax: "3.17%"
- molecule: "Cc1ccc(NC(=O)c2cnn3c(O)cc(-c4ccc(N5CCN(C)CC5)nc4)nc23)cc1 [BRD5070]"
  Emax: "2.48%"
- molecule: "COCc1ccc(-c2cc(O)n3ncc(C(=O)Nc4ccc(NC(C)=O)cc4)c3n2)cc1 [BRD9998]"
  Emax: "3.25%"
- molecule: "COCc1ccc(-c2cc(O)n3ncc(C(=O)Nc4ccccc4)c3n2)cc1 [BRD9876]"
  Emax: "1.96%"

Ask: Determine its reported Emax: COc1cccc(-c2cc(O)n3ncc(C(=O)Nc4ccc(C)cc4)c3n2)c1 [BRD6202]
Reply: 1.48%

----------
Target: mGPR65 (Mus musculus, UniProt Q61038)
Construct: expressed in transfected cells; host or cells: HeLa (ATCC CCL-2), lentiviral transduction, pLX317
Sequence (Q61038 whole entry): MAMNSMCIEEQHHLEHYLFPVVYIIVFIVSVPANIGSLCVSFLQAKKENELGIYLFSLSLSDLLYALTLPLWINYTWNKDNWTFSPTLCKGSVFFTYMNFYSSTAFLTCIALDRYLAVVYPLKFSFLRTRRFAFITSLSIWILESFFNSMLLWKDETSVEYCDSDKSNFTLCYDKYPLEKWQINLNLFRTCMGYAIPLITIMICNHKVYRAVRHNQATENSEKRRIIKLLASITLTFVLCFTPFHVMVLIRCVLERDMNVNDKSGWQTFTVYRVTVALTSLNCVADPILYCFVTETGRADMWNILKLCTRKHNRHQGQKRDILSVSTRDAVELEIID
Test: cAMP detection in HeLa expression cell line, mGPR65
Type: cell-based
Details: HeLa, 2nd mGPR column pair; relative to 100uM forskolin (100%) and DMSO (0%); NA = no activity; read-out: mGPR Max Activity %
Emax strictly under 50% means Fulfilled; at 50% or over means Not fulfilled.

- compound: "COc1cccc(Cc2cc(O)n3ncc(C(=O)Nc4ccc(C)cc4)c3n2)c1"
  assigned-class: "Fulfilled"

Please find the next compound below.
Ask: In the record for Cc1ccc(NC(=O)c2cnn3c(O)cc(-c4ccc5ccccc5c4)nc23)cc1 , is Emax less than 50%?
Reply: Fulfilled

----------
Reported pEC50 values follow for various molecules
Molecular target: hGPR65 (Homo sapiens)
Construct: expressed in transfected cells; host or cells: HeLa (ATCC CCL-2), lentiviral transduction, pLX317
Experiment: cAMP detection in HeLa expression cell line, hGPR65
Type: cell-based
Conditions: 2nd hGPR column pair; NA = no activity; read-out: hGPR EC50
Scale explanation: pEC50 corresponds to minus log10 of a concentration expressed in moles per litre.

Reference set (3 entries):
- molecule: "Cc1ccc(NC(=O)c2cnn3c(O)cc(-c4ccc(C(=O)NC(C)C)cc4)nc23)cc1 [BRD5085]"
  observed-property: "pEC50"
  reported: 5.55
- molecule: "Cc1ccc(NC(=O)c2cnn3c(O)cc(-c4ccc(N5CCOCC5)cc4)nc23)cc1 [BRD4390]"
  observed-property: "pEC50"
  reported: 6.58
- molecule: "COCc1ccc(-c2cc(O)n3ncc(C(=O)Nc4cccc(C)c4)c3n2)cc1 [BRD1946]"
  observed-property: "pEC50"
  reported: 5.30

Switching to the query record.
Ask: # return recorded pEC50 for input CCOCc1ccc(-c2cc(O)n3ncc(C(=O)Nc4ccc(C)cc4)c3n2)cc1 [BRD6745]
Reply: 6.38

----------
Target: mGPR65 (Mus musculus)
Construct: expressed in transfected cells; host or cells: HeLa (ATCC CCL-2), lentiviral transduction, pLX317
Assay: cAMP detection in HeLa expression cell line, mGPR65
Assay type: cell-based
Details: mGPR EC50 (uM), second pair of columns; pH 7.2, 30 min
Experimental: HeLa stable expression cell lines were produced by lentiviral transduction. Briefly, lentiviral plasmids for each GPCR with a C-terminal V5 Tag ([…]) were made in a pLX317 backbone using competent Escherichia coli (New England Biolabs, C3050H). […] cAMP was measured in cells using the Lance Ultra cAMP Kit. […] Cells were counted in HBSS (Gibco, 14025092) and then resuspended in stimulation buffer prepared according to the manufacturer’s instructions and adjusted to pH 7.2 using 1 M sodium hydroxide. […]
observed-property: EC50 (µM)
Enter your answer as a number in µM; do not include the unit.

- chemical-structure: "Cc1ccc(NC(=O)c2cnn3c(O)cc(-c4ccc(F)c(Cl)c4)nc23)cc1"
  reported: 0.23
- chemical-structure: "Cc1ccc(NC(=O)c2cnn3c(O)cc(-c4ccc(COC(C)C)cc4)nc23)cc1F"
  reported: 0.29

Let us move to another entry and its EC50.
Ask: Recall and state the measured EC50 for COCc1ccc(-c2cc(O)n3ncc(C(=O)Nc4ccc(C)cc4)c3n2)cc1 .
Reply: 0.406
